- Experiment Summary: Cmax in BALB/c mouse at 1 mg/kg, po
- Format: ADME, organism-based
- Set-up: dose 1 mg/kg, route oral
- Study Conditions: in vivo
Quantity Kind: Cmax

Task item: I'd like to know its Cmax. The molecule in question is COc1cc2c(c(OC)c1OC)-c1ccc(SC)c(=O)cc1[C@@H](NC(=O)C1CC1C)CC2 (stereo partly specified)
Reply: 254 ng/mL

* * *

- Experiment Summary: AUC (0 to infinity) in BALB/c mouse at 1 mg/kg, po
- Format: ADME, organism-based
- Parameters: time infinity, dose 1 mg/kg, route oral
- Study Conditions: plasma
Quantity Kind: AUC(0-inf) (ng·h/mL)
Please respond with the number in ng·h/mL and leave the unit unwritten.

Task item: I'd like to know its AUC(0-inf). The molecule in question is COc1cc2c(c(OC)c1OC)-c1ccc(SC)c(=O)cc1[C@@H](NC(=O)C1CC1C)CC2 (stereo partly specified)
Reply: 269
